- subject of test: Recombinant canine IL-31 produced in CHO cells (canine)
- Sequence (chain, as listed by the source limits assumed, form in doubt): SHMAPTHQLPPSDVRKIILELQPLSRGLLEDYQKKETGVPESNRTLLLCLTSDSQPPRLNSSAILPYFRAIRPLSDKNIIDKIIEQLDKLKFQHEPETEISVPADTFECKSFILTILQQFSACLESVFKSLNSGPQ
- test description: SPR (Biacore), IL-31 amine-coupled to the chip, mAb in solution, 1:1 fit

{"binder": "Chimeric 11E12 (antibody, V domains shown) VH: QVQLQQSGAELVKPGASVKLSCKASGYTFKYYDINWVRQRPEQGLEWIGWIFPGDGGTKYNETFKGKATLTTDKSSSTAYMQLSRLTSEDSAVYFCARGGTSVIRDAMDYWGQGTSVTVSS VL: DIVLTQSPASLAVSLGQRATISCRASESVDNYGISFMHWYQQKPGQPPKLLIYRASNLESGIPARFSGSGSRTDFTLTINPVETDDVATYYCQQSNKDPLTFGAGTKLELKR", "quantity unit": "pM", "Kd": 0.268}
{"binder": "Caninized 11E12 FW2 (antibody, V domains shown) VH: EVQLVQSGAEVKKPGASVKVSCKTSGYTFKYYDINWVRQAPGAGLDWMGWIFPGDGGTKYNETFKGRVTLTADTSTSTAYMELSSLRAGDIAVYYCARGGTSVIRDAMDYWGQGTLVTVSS VL: DIVMTQTPLSLSVSPGEPASISCRASESVDNYGISFMHWYQQKPGQPPKLLIYRASNLESGVPDRFSGSGSGTDFTLRISRVEADDAGVYYCQQSNKDPLTFGAGTKLEIKR", "quantity unit": "pM", "Kd": 147}
{"binder": "Mouse 34D03 (antibody, V domains shown) VH: EVQLVESGGDLVKPGGSLKLSCAASGFSFSNYGMSWVRQTPDKRLEWVATISYGGSYTYYPDNIKGRFTISRDNAKNTLYLQMSSLKSEDTAMYYCVRGYGYDTMDYWGQGTSVTVSS VL: DILLTQSPASLAVSLGQRAIISCKASQSVSFAGTGLMHWYQQKPGQQPKLLIYRASNLEAGVPTRFSGSGSRTDFTLNIHPVEEEDAATYFCQQSREYPWTFGGGTKLEIK", "quantity unit": "pM", "Kd": 1.01}
{"binder": "Chimeric 19D07 (antibody, V domains shown) VH: EVKLVESGGGLVKPGGSLKLSCAASGFAFSSYDMSWVRQIPEKRLEWVATITSGGGYTYSADSVKGRFTISRDNARNTLYLQMSSLRSEDTAVYYCARQNWVVGLAYWGQGTLVTVSA VL: DIVMSQSPSSLSVSAGDKVTMSCKSSQSLLNSGNQKNYLAWYQQKPWQPPKLLIYGASTRESGVPDRFTGSGSGTDFTLTISSVQAEDLAVYYCQNDYSYPYTFGGGTKLEIKR", "quantity unit": "pM", "Kd": 0.515}
{"binder": "Mouse 19D07 (antibody, V domains shown) VH: EVKLVESGGGLVKPGGSLKLSCAASGFAFSSYDMSWVRQIPEKRLEWVATITSGGGYTYSADSVKGRFTISRDNARNTLYLQMSSLRSEDTAVYYCARQNWVVGLAYWGQGTLVTVSA VL: DIVMSQSPSSLSVSAGDKVTMSCKSSQSLLNSGNQKNYLAWYQQKPWQPPKLLIYGASTRESGVPDRFTGSGSGTDFTLTISSVQAEDLAVYYCQNDYSYPYTFGGGTKLEIK", "quantity unit": "pM", "Kd": 7.24}
